# Test system: Escherichia coli TOP10;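 note: peptides expressed intracellularly from a pBAD plasmid library in pooled LB shake-flask culture, induced with 0.3% L-arabinose, DNA abundance read by NGS, three biological replicates, DESeq2 with apeglm shrinkage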
# EXPERIMENTAL PROTOCOL: shrunken log2 fold change of peptide-encoding DNA abundance (4.5 h post-induction vs induction); higher = less antimicrobial activity (less host growth inhibition)
# STATED CONDITIONS: time post-induction: 4.5 h; library: site-saturation at positions 5, 18, 19, 20
Some sequences, each annotated with its measured shrunken log2 fold change.
Keep it simple and answer with nothing but the number.

Provide shrunken log2 fold change, tested on Escherichia coli TOP10, for RRIRPRPPRLPRPRPRPMVCPRP . -0.0948

Provide shrunken log2 fold change, tested on Escherichia coli TOP10, for RRIRARPPRLPRPRPRPQRDPRP . 0.225

Provide shrunken log2 fold change, tested on Escherichia coli TOP10, for RRIRMRPPRLPRPRPRPCYCPRP . -0.289

Provide shrunken log2 fold change, tested on Escherichia coli TOP10, for RRIRFRPPRLPRPRPRPPDTPRP . 0.254

Provide shrunken log2 fold change, tested on Escherichia coli TOP10, for RRIRHRPPRLPRPRPRPMSQPRP . -0.151

Provide shrunken log2 fold change, tested on Escherichia coli TOP10, for RRIRLRPPRLPRPRPRPMAFPRP . -0.127

Provide shrunken log2 fold change, tested on Escherichia coli TOP10, for RRIRGRPPRLPRPRPRPEEWPRP . 1.7

Provide shrunken log2 fold change, tested on Escherichia coli TOP10, for RRIRLRPPRLPRPRPRPKEMPRP . 0.0765

Provide shrunken log2 fold change, tested on Escherichia coli TOP10, for RRIRLRPPRLPRPRPRPRSKPRP . -0.111

Provide shrunken log2 fold change, tested on Escherichia coli TOP10, for RRIRCRPPRLPRPRPRPENFPRP . -0.32

Further cases:
Provide shrunken log2 fold change, tested on Escherichia coli TOP10, for RRIRGRPPRLPRPRPRPQNLPRP . -0.34

Provide shrunken log2 fold change, tested on Escherichia coli TOP10, for RRIRQRPPRLPRPRPRPCHTPRP . -0.207

Provide shrunken log2 fold change, tested on Escherichia coli TOP10, for RRIRCRPPRLPRPRPRPYHEPRP . -0.329

Provide shrunken log2 fold change, tested on Escherichia coli TOP10, for RRIRTRPPRLPRPRPRPEHRPRP . -0.0227

Provide shrunken log2 fold change, tested on Escherichia coli TOP10, for RRIRSRPPRLPRPRPRPKENPRP . -0.0465

Provide shrunken log2 fold change, tested on Escherichia coli TOP10, for RRIRSRPPRLPRPRPRPIIMPRP . -0.35

Where these numbers come from: the supplement of paper PMC9112550
